- Tested on: MOLT-4
- method: NCI tumour cell line growth inhibition, 48 h
Active and inactive are the calls of the source. No stated cut-off is given here; in the data, active = GI50 up to about 1.1 µM and inactive = higher.
Response enum: 1.0 = active, 0.0 = inactive

Examples with answers:
molecule | category_label
CCOC(=O)C(Cc1c(-c2[nH]c3ccccc3c2CC(NC(=O)CNC(C)=O)C(=O)OCC)[nH]c2ccccc12)NC(=O)CNC(C)=O (stereo not given) | 0.0
CC(O)CCCCC(O)CCC[C@H](O)[C@H]1CCC([C@H]2CCC([C@@H](O)CCCCCCCCCCCCC3=C[C@H](C)OC3=O)O2)O1 (stereo not given in full) | 0.0
OC(c1ccsc1)c1cc2ccccc2s1 (stereo not given) | 0.0
N#CC(C(=O)CCC(=O)Nc1ccc(Cl)cc1)c1ccc(Cl)cc1 (stereo not given) | 0.0
CN1CCCC2[C@@H]3CCC4=C(O)C(=O)CC[C@]4(C)C3CC[C@@]21C (stereo not given in full) | 0.0
O=C(c1ccccc1)c1ccc2[nH]c(-c3c(Cl)c(Cl)c(Cl)c(Cl)c3C(=O)N/N=C/c3ccc(Cl)cc3)nc2c1 | 0.0

Hi, sorry to bother you, what did the test record for `Cc1ccc(N/N=C/C2=CC(C)(C)C(C#N)(C#N)C(O)=C2C#N)cc1` ?
0.0

* * *

- Tested on: MDA-MB-231
- method: NCI tumour cell line growth inhibition, 48 h
The source made the active and inactive calls. Rule as the data show it: active = GI50 up to about 1.1 µM and inactive = higher.
reported_property: GI50

# annotated cases, reported GI50 shown
molecule | GI50
C[C@@H](CN1CC(=O)NC(=O)C1)N1CC(=O)NC(=O)C1 | 168 µM (inactive)
COc1ccc(N2C(=O)C(=O)N(c3ccccc3[N+](=O)[O-])C2=S)cc1 | 20.4 µM (inactive)
Cc1ccc(NC(=S)C#N)c(C)c1 | > 100 µM (inactive)

API: the following record is the query input.
Provide measured GI50 value, entry: `Nc1ccc(Sc2c3ccccc3nc3ccccc23)cc1`
14.7 µM (inactive)

* * *

- System: SK-MEL-2
- method: NCI tumour cell line growth inhibition, 48 h
Active and inactive are the calls of the source. Cut-off read from the data, not from the text of the source: active = GI50 up to about 1.1 µM and inactive = higher.
Response enum: true for active, false for inactive

Examples with answers:
molecule | system_name | category_label
C[C@H](C(=O)O)C(=O)NC(=O)N(Cc1ccccc1)N=O | SK-MEL-2 | false
Cc1cn([C@@H]2O[C@H](CO[Si](C)(C)C(C)(C)C)[C@]3(O[C@H]3C(=O)NO)[C@H]2O[Si](C)(C)C(C)(C)C)c(=O)[nH]c1=O | SK-MEL-2 | false

Hi, sorry to bother you, what did the test record for `NCCCCNCCCN1CC1` ?
true

Hi, sorry to bother you, what did the test record for `Clc1ccc2c(NCCCC/N=C/c3ccccc3)ccnc2c1` ?
false

Hi, sorry to bother you, what did the test record for `CN(C)CCNC(=O)c1ccc(Cl)c2ccc(-c3ccccc3)nc12` ?
false

Hi, sorry to bother you, what did the test record for `Cn1ncc(=S)[nH]c1=S` ?
false

* * *

- Test system: OVCAR-4
- method: NCI tumour cell line growth inhibition, 48 h
The source made the active and inactive calls. Cut-off read from the data, not from the text of the source: active = GI50 up to about 1.1 µM and inactive = higher. Where a SMILES comes first, the peptide text is derived from it. The star is where a group is joined. Fmoc = O=C(OCC1c2ccccc2-c2ccccc21)*; OtBu = CC(C)(C)O*
Response enum: active, inactive

compound | category_label
CC(C)(C)c1nc2c(o1)C(=O)c1ccccc1C2=O | active
O=C(O)/C(Cl)=C(/Cl)C(=O)Nc1cccc(Cl)c1 | inactive
Nc1nc(F)nc2c1ncn2C1OC(COP(=O)(O)O)C(O)C1O (stereo unspecified) | inactive
Nc1nc(SCc2ccc([N+](=O)[O-])cc2)nc2c1ncn2C1OC(CO)C(O)C1O (stereo unspecified) | inactive
CCCCCCCCCCCCOP(=O)(O)OCC(N)C(=O)O (stereo unspecified) | inactive
CN1CCCC2[C@@H]3CCC4=C(O)C(=O)CC[C@]4(C)C3CC[C@@]21C (stereo partly specified) | inactive
Cc1cc(C(=O)CSC(=S)SC(C)(C)C)ccc1Cl | inactive
CCOC(=O)C(=O)C1C(=O)Nc2ccccc21 (stereo unspecified) | inactive

Hi, sorry to bother you, what did the test record for `Cc1n[nH]c(=O)n1/N=C/c1cccs1` ?
inactive

Hi, sorry to bother you, what did the test record for CC1(C)[C@@H]2C[C@H]1c1cnc(-c3ccccn3)cc1C2CCCCC[C@@H]1c2cc(-c3ccccn3)ncc2[C@@H]2C[C@H]1C2(C)C (stereo partly specified) ?
active

Hi, sorry to bother you, what did the test record for NC(Cc1ccc2nc3c4ccccc4c(=O)cc-3oc2c1)C(=O)O (stereo unspecified) ?
inactive

Hi, sorry to bother you, what did the test record for `Cc1[nH]n(-c2nc3c(c(=O)[nH]2)CCC3)c(=O)c1CCO` ?
inactive

Hi, sorry to bother you, what did the test record for COc1ccccc1C1CC(=O)CC(c2ccccc2OC)C12C(=O)NC(=S)NC2=O (stereo unspecified) ?
inactive

Hi, sorry to bother you, what did the test record for CCN(CC)CC(=O)NC1c2ccccc2Oc2c(C)cccc21 (stereo unspecified) ?
inactive

Hi, sorry to bother you, what did the test record for `Clc1ccc(CCn2cncn2)c(Cl)c1` ?
inactive

Hi, sorry to bother you, what did the test record for `[O-][n+]1c2cccc(O)c2[n+]([O-])c2cccc(O)c21` ?
inactive

Hi, sorry to bother you, what did the test record for O=S1(=O)c2ccccc2N=C(c2ccccc2Cl)CC1c1ccc(F)cc1 (stereo unspecified) ?
inactive

Hi, sorry to bother you, what did the test record for Cc1ccccc1C(=O)C1CCCCC1O (stereo unspecified) ?
inactive

Hi, sorry to bother you, what did the test record for `CC(=O)Oc1cc2c(cc1OC(C)=O)[C@H]1CC[C@]3(C)[C@@H](OC(C)=O)CC[C@H]3[C@@H]1CC2` ?
inactive

Hi, sorry to bother you, what did the test record for `COc1ccc2cc(-c3nc(N)nc(N4N=C(C)CC4(C)C)n3)c(=N)oc2c1` ?
inactive

Hi, sorry to bother you, what did the test record for CCCCCC(/C=C/C1CCC(=O)C1)OCOCCOC (stereo unspecified) ?
inactive

Hi, sorry to bother you, what did the test record for CCCCCc1cc2cc3c(c(O)c2c(=O)[nH]1)C1(CC3)C(=O)c2c(O)c3c(c(O)c2C1=O)C(=O)C(OC)=CC3=O (stereo unspecified) ?
active

Hi, sorry to bother you, what did the test record for `CC(C)Cc1cnc(CC(C)C)c(=O)[nH]1` ?
inactive

Hi, sorry to bother you, what did the test record for `O=[N+]([O-])/C(C(Cl)=C(Cl)Cl)=C(/Nc1ccccc1)SCc1ccccc1` ?
inactive

Hi, sorry to bother you, what did the test record for CC(C)C(NC(=O)OCC1c2ccccc2-c2ccccc21)C(=O)NC(CCC(=O)OC(C)(C)C)C(=O)OC(C)(C)C (stereo unspecified) (Fmoc-Val-Glu(OtBu)-OtBu; configuration not given here) ?
inactive

Hi, sorry to bother you, what did the test record for `O=C(O)c1ccc(Nc2nc3ccccc3nc2-c2cccs2)cc1` ?
inactive

* * *

- Test system: SNB-75
- method: NCI tumour cell line growth inhibition, 48 h
Active and inactive are the calls of the source. Rule as the data show it: active = GI50 up to about 1.1 µM and inactive = higher.
reported_property: GI50

# annotated cases, reported GI50 shown
molecule | GI50
COC(=O)c1cccn1C(=O)n1cccc1 | 62.1 µM (inactive)
Cc1nc2ccccc2c(=O)n1NC(=S)Nc1cccc(Cl)c1 | 72.9 µM (inactive)
C[C@]12CC[C@@H]3c4cc(I)c(O)cc4CC[C@H]3[C@@H]1CC[C@@H]2O | 3.17 µM (inactive)
NC(=O)N/N=C1/c2ccccc2-n2nccc21 | 28.8 µM (inactive)
COc1ccc(N2N=NN(C(C)C)/C2=C(/Cl)c2nnnn2-c2ccc(OC)cc2)cc1 | 13 µM (inactive)
O=[S@@]1Nc2ccc(Br)cc2S1 | > 100 µM (inactive)
CCCCCCC1=NOC(C(c2cc[nH]c2)N(C)[C@H](C(=O)OC)C(C)C)C1 (stereo not given in full) | 55.6 µM (inactive)
OC(c1ccsc1)c1cc2ccccc2s1 (stereo not given) | > 10 µM (inactive)
CCOC(=O)C(Cc1c(-c2[nH]c3ccccc3c2CC(NC(=O)CNC(C)=O)C(=O)OCC)[nH]c2ccccc12)NC(=O)CNC(C)=O (stereo not given) | 22.1 µM (inactive)

API: the following record is the query input.
Provide measured GI50 value, entry: CC(=O)NC(CS)C(=O)O (stereo not given)
10700 µM (inactive)

* * *

- Tested on: UACC-62
- method: NCI tumour cell line growth inhibition, 48 h
Counter-ions that a name gives are not always drawn. The source made the active and inactive calls. Cut-off read from the data, not from the text of the source: active = GI50 up to about 1.1 µM and inactive = higher.
Response enum: 1.0 for active, 0.0 for inactive

Examples with answers:
compound | system_name | category_label
CCCCCc1cc2cc3c(c(O)c2c(=O)[nH]1)C1(CC3)C(=O)c2c(O)c3c(c(O)c2C1=O)C(=O)C(OC)=CC3=O (stereo not drawn) | UACC-62 | 0.0
O=C(CC(C(=O)c1ccco1)c1cccs1)c1cccs1 (stereo not drawn) | UACC-62 | 0.0
COC(=O)N1CC(=O)C(C(=O)NC23CC4CC(CC(C4)C2)C3)C1 (stereo not drawn) | UACC-62 | 0.0
O=c1[nH]nc(-c2cccc([N+](=O)[O-])c2)[nH]1 | UACC-62 | 0.0
O=c1/c(=C/c2ccc([N+](=O)[O-])o2)sc2n1[C@@H](c1ccc3c(c1)OCO3)C=C(c1cc(F)c(Cl)cc1Cl)N=2 | UACC-62 | 0.0
O=C(O)c1c(CC(Cc2ccc3c(c2)CCCC3)C(=O)O)ccc2c1CCCC2 (stereo not drawn) | UACC-62 | 0.0

Hi, sorry to bother you, what did the test record for `COc1cc(C(C)=O)cc(C(=O)N(C(C)C)C(C)C)c1[Si](C)(C)C` ?
0.0

Hi, sorry to bother you, what did the test record for `Nc1c(S(=O)(=O)c2ccccc2)c2nc3ccccc3nc2n2c1nc1ccccc12` ?
0.0

Hi, sorry to bother you, what did the test record for CCCCCC1CC=CC(NC(=O)OCc2ccccc2)C1/C=C/CCCC1OCCO1 (stereo not drawn) ?
0.0

Hi, sorry to bother you, what did the test record for C=C1C[C@@H]2CC[C@@]34C[C@H]5O[C@H]6[C@@H](O3)[C@H]3O[C@H](CC[C@@H]3O[C@H]6[C@H]5O4)CC(=O)C[C@@H]3[C@@H](OC)[C@@H](C[C@H](O)CN)O[C@H]3C[C@H]3O[C@@H](CC[C@@H]1O2)C[C@@H](C)C3=C [ERIBULIN MESYLATE] ?
1.0

Hi, sorry to bother you, what did the test record for N#CC(C(=O)CCC(=O)Nc1ccc(Cl)cc1)c1ccc(Cl)cc1 (stereo not drawn) ?
0.0

Hi, sorry to bother you, what did the test record for `O=C(/C=C(\S/C=C(/c1ccccc1)N1CCn2c(C(=O)c3ccccc3)c(C(=O)c3ccccc3)c(C(=O)c3ccccc3)c21)C(=O)c1ccccc1)c1ccccc1` ?
0.0

Hi, sorry to bother you, what did the test record for `O=C(c1ccc(O)c([N+](=O)[O-])c1)c1ccc(O)c([N+](=O)[O-])c1` ?
0.0
